- System: SR leukemia
- Assay remarks: NCI-60 one-dose screen, 48 h
- Conditions used: 10 µM unless noted
The panel holds about 83,000 compounds, 20% with a hit somewhere; the sample as a whole holds those more often. Calls of active or inactive are those of the source. The calls were made as follows: active = growth percent below 10; inactive = the rest.
Pick from 1 for active, 0 for inactive when you respond.

These solved cases illustrate the format of a correct answer.
[
  {
    "Compound": "O=C(O)C(O)C(O)C(=O)O.[NH-]C1CCCCC1[NH-].[Pt+2] (centres undefined)",
    "Discrete label": 0
  },
  {
    "Compound": "COc1ccc(OCC(=O)Nc2ccc(-c3nc4ccccc4s3)cc2C)cc1",
    "Discrete label": 0
  },
  {
    "Compound": "CCN(CC)CC(C)Nc1ccc([N+](=O)[O-])c2sc3ccccc3c(=O)c12 (centres undefined)",
    "Discrete label": 1
  },
  {
    "Compound": "CC(C)(C)n1cc(-c2ccnc(NCCCNS(=O)(=O)c3cccc4ccccc34)c2)c(-c2cccc(O)c2)n1",
    "Discrete label": 1
  },
  {
    "Compound": "CC1=C(NCCN2CCCC2)C(=O)c2c(OCc3cccc(Cl)c3)cccc2C1=O",
    "Discrete label": 0
  },
  {
    "Compound": "Nc1c(C(=O)Nc2cccc3c2OCCO3)sc2nc3c(cc12)C(=O)CCC3",
    "Discrete label": 0
  }
]

Q: Entry COc1ccc(-c2nn(-c3ccccc3)cc2/C=C/C(=O)OCc2cn(-c3ccc(F)c(Cl)c3)nn2)cc1 : call = ?
Ans: 0

Q: Outcome? COc1cc(/C=C2\CN(C(=O)CCN3CCC(=NO)CC3)C/C(=C\c3cc(OC)c(OC)c(OC)c3)C2=O)cc(OC)c1OC
Ans: 1

Q: Outcome? COc1ccc(S(=O)(=O)NCCCNc2cc(-c3c(-c4cccc(OC)c4)nc4sccn34)ccn2)cc1
Ans: 0

====

- System: OVCAR-5 ovarian
- Assay remarks: NCI-60 one-dose screen, 48 h
- Conditions used: 10 µM unless noted
The panel holds about 83,000 compounds, 20% with a hit somewhere; the sample as a whole holds those more often. The source made the active and inactive calls. The calls were made as follows: active = growth percent below 10; inactive = the rest.
Answer with one of the outcomes active, inactive

Sample answers from the record:
[
  {
    "Molecule": "N#Cc1ccc(NC(=O)Nc2ccc(Cc3ccc(NC(=O)Nc4ccc(C#N)cc4)cc3)cc2)cc1",
    "Discrete label": "inactive"
  },
  {
    "Molecule": "COc1ccc(S(=O)(=O)NCCCNc2cc(-c3c(-c4cccc(OC)c4)nc4sccn34)ccn2)cc1",
    "Discrete label": "inactive"
  },
  {
    "Molecule": "COc1cnc2c(c1)C(=O)c1c-2n(CCCBr)c(=O)c2cc([N+](=O)[O-])ccc12",
    "Discrete label": "active"
  },
  {
    "Molecule": "COc1nc2c(cc1S(=O)(=O)c1ccccc1)CCc1c-2cnn1-c1ccc(Cl)cc1",
    "Discrete label": "inactive"
  }
]

Note: attention shifts to another entry.
Q: Fill in: this test's call for O=C(Nc1ccc(Oc2ccc(F)cc2)c(Cl)c1)c1cccnc1 is ___
Ans: inactive

====

- System: NCI-H322M lung
- Assay remarks: NCI-60 one-dose screen, 48 h (100 = growth as untreated, 0 = no growth, -100 = all killed)
- Conditions used: 10 µM unless noted
This is part of a sample that, as a whole, favours compounds with a hit. Of some 83,000 tested, about 20% had one in any assay.
Hi! Just check whether growth is below 90%. Below gives true, equal or above gives false.

Sample answers from the record:
[
  {
    "Compound": "COc1ccc(OCC(=O)Nc2ccc(-c3nc4ccccc4s3)cc2C)cc1",
    "Discrete label": "false"
  },
  {
    "Compound": "CC1(C)OCC2OC3(C(=O)O)OC(C)(C)OC3C2O1 (stereo unspecified)",
    "Discrete label": "false"
  },
  {
    "Compound": "CSc1[nH]c2ncnc(N)c2c1C#N",
    "Discrete label": "true"
  },
  {
    "Compound": "CN(C)c1ccc(/C=C(\\C#N)c2nc3ccccc3s2)cc1",
    "Discrete label": "true"
  }
]

Now consider a different compound.
Q: In plain terms, does CCCCCCCCCCNC(=O)CCl come in under 90% for growth?
Ans: false
